From: PubChem BioAssay AID328

Tested on: BDF1 mice, P388 leukemia ip, median survival T/C
PROTOCOL DESCRIPTION: NCI In Vivo Anticancer Drug Screen. Data for tumor model P388 Leukemia (intraperitoneal) in B6D2F1 (BDF1) mice
MEASUREMENT CONTEXT: endpoint: median survival time; dose: 100.0 mg/kg/injection; schedule: Q04DX003 (ip); vehicle: saline; higher = longer survival
Toxic doses and inconclusive results are not listed.
Kindly state T/C for each of the entries shown.

Dear colleague, I am looking for the recorded T/C of the following molecule: `Nc1nc(CNc2ccc(Cl)cc2)nc(Nc2ccccc2)n1` 105 % of control

Dear colleague, I am looking for the recorded T/C of the following molecule: Nc1ncnc2c1ncn2C1OC(CO)C(O)C1O (stereo unspecified) 109 % of control

Dear colleague, I am looking for the recorded T/C of the following molecule: `O/N=c1/cc(-c2cccs2)ss1` 117 % of control

Dear colleague, I am looking for the recorded T/C of the following molecule: `CC(=O)[C@H]1[C@H](O)C[C@H]2[C@@H]3CCC4=CC(=O)CC[C@]4(C)[C@@]3(F)[C@@H](O)C[C@@]21C` 100 % of control

Dear colleague, I am looking for the recorded T/C of the following molecule: `CCOCCc1ccncc1` 108 % of control

Dear colleague, I am looking for the recorded T/C of the following molecule: CSc1nc(Cl)cc2c1ncn2C1OC(CO)C(O)C1O (stereo unspecified) 112 % of control
